test system: MALME-3M; test: NCI 60 antitumor screening (single dose / five doses); type: cell-based; details: Homo sapiens, Malme-3M, read-out: Growth inhibition percentage (GI %)
endpoint: inhibition at 10 µM (%)
Your answer should be a plain number; it is taken to be in %.

So what inhibition at 10 µM did O=[N+]([O-])c1cc(/C=N/Nc2nc(N/N=C/c3ccc(Cl)c([N+](=O)[O-])c3)nc(N3CCOCC3)n2)ccc1Cl [compound 6i] get with MALME-3M? -29.9

So what inhibition at 10 µM did O=[N+]([O-])c1cccc(/C=N/Nc2nc(N/N=C/c3cccc([N+](=O)[O-])c3)nc(N3CCOCC3)n2)c1 [compound 6f] get with MALME-3M? 6.12

So what inhibition at 10 µM did O=[N+]([O-])c1cccc(/C=N/Nc2nc(N/N=C/c3cccc([N+](=O)[O-])c3)nc(N3CCCCC3)n2)c1 [compound 7f] get with MALME-3M? 7.94

So what inhibition at 10 µM did C/C(=N\Nc1nc(N/N=C(\C)c2ccc([N+](=O)[O-])cc2)nc(N2CCOCC2)n1)c1ccc([N+](=O)[O-])cc1 [compound 8a] get with MALME-3M? 30.6

So what inhibition at 10 µM did O=[N+]([O-])c1cc(/C=N/Nc2nc(N/N=C/c3ccc(Cl)c([N+](=O)[O-])c3)nc(N3CCCCC3)n2)ccc1Cl [compound 7i] get with MALME-3M? -1.47
